Below, each of the compounds is paired with its reported growth value.
- Tested on: HOP-62 NSCLC
- MEASUREMENT PROTOCOL: NCI-60 one-dose screen, 48 h (100 = growth as untreated, 0 = no growth, -100 = all killed)
- RECORDED CONDITIONS: 10 µM unless noted
Compounds without any hit were thinned out: in the full panel of roughly 83,000, 20% have a hit.
Write down the numeric answer in % and omit the unit.

Reference set, count: 2
COc1ccc2c(c1)c(-c1nc(-c3c[nH]c4c(Cl)nccc34)cs1)cn2C    92.6
CC(=O)OC[C@]12CCC(C)(C)C=C1[C@H]1CC[C@@H]3[C@@]4(C)CCCNC(C)(C)[C@@H]4CC[C@@]3(C)[C@]1(C)CC2    91.8

Incoming: I would be grateful if you could share the reported growth for COc1ccc(C/C(C)=C(/c2ccc(OCCN3CCCCCC3)cc2)c2ccc(OC(=O)c3ccccc3)cc2)cc1 .
Outgoing: 91.3

----------
- Tested on: M14 melanoma
- MEASUREMENT PROTOCOL: NCI-60 one-dose screen, 48 h
- RECORDED CONDITIONS: 10 µM unless noted
- Method: Growth inhibition of the M14 human tumor cell line is measured as a screen for anti-cancer activity. Cells are grown in 96 well plates and exposed to the test compound for 48 hours. Compounds are tested at a single concentration, which is 10^-5 M for most compounds. The reported endpoint is percent growth (GI% or GIPRCNT), where numbers from 0 - 100% represent growth inhibition, and numbers from -100% - 0 represent cell death. For example, a value of 40 represents 60% growth inhibition. […]
Compounds without any hit were thinned out: in the full panel of roughly 83,000, 20% have a hit. Activity calls are given as the source filed them. How the source made its calls: active means growth percent below 10; inactive means the rest.
Entry note: the call must match one of TRUE = active, FALSE = inactive

# example entries with known answers
CCCNNC(=O)/C=C/c1ccc(CNCCc2c(C)[nH]c3ccccc23)cc1    FALSE
O=C(Nc1ccc(F)cc1)c1cc2cc(Nc3nc(-c4ccccc4)nc4ccccc34)ccc2oc1=O    FALSE

Incoming: Lab log entry: COc1ccc(-c2nnc3n(C)c(=O)c4ccccc4n23)cc1O — outcome as called in the assay?
Outgoing: TRUE

----------
Below, each of the molecules is paired with its reported growth value.
- Tested on: NCI/ADR-RES ovarian
- MEASUREMENT PROTOCOL: NCI-60 one-dose screen, 48 h (100 = growth as untreated, 0 = no growth, -100 = all killed)
- RECORDED CONDITIONS: 10 µM unless noted
This is part of a sample that, as a whole, favours compounds with a hit. Of some 83,000 tested, about 20% had one in any assay.
Write down the numeric answer in % and omit the unit.

Reference set, count: 2
Nc1ncnc2c1C(c1ccc([N+](=O)[O-])cc1)c1sc3c(F)cccc3c1O2 (stereo not drawn)    101
COc1cc(-c2nn(-c3cccc(NC(=O)CCN4CCN(C)CC4)c3)cc2-c2ccncc2)ccc1Cl    39.9

Here's the next entry for you.
Incoming: I would be grateful if you could share the reported growth for COc1cc2nc3cc([N+](=O)[O-])ccc3c(NCCNCC(C)(C)O)c2cc1OC .
Outgoing: 55

----------
- Test system: U251 CNS
- MEASUREMENT PROTOCOL: NCI-60 one-dose screen, 48 h (100 = growth as untreated, 0 = no growth, -100 = all killed)
- RECORDED CONDITIONS: 10 µM unless noted
This is part of a sample that, as a whole, favours compounds with a hit. Of some 83,000 tested, about 20% had one in any assay.
Below, each of the compounds is paired with its reported growth value.
Write down the numeric answer in % and omit the unit.

Reference set, count: 5
Cn1cc(C2=C(c3cccc4ccccc34)C(=O)NC2=O)c2cc(Br)ccc21    91.7
Fc1ccc(NC(c2ccc(F)cc2)C2CCN(CCCCc3ccccc3)CC2)cc1 (stereo unspecified)    16.6
N#CC(Cc1cccc2ccccc12)c1cc2ccccc2[nH]1 (stereo unspecified)    92.3
Cc1ccc(-c2nc(C#N)c(S(=O)(=O)N(C)C)o2)cc1    93.3
Cc1ccc(S(=O)(=O)Nc2cc(Sc3ccccc3)c(O)c3ccccc23)cc1    16.1

Incoming: I would be grateful if you could share the reported growth for Cc1ccc(Cl)cc1N1CCN(C(=O)[C@@H]2C[C@@H]2c2ccc(F)cc2)CC1 .
Outgoing: 90

Incoming: I would be grateful if you could share the reported growth for CC(C)=CCc1cc(O)c(O)c2oc3cc(O)cc(O)c3c(=O)c12 .
Outgoing: 41

Incoming: I would be grateful if you could share the reported growth for C=C(C)[C@@H]1CC[C@]2(C(=O)O)CC[C@]3(C)[C@H](CC[C@@H]4[C@@]5(C)CCC(N)C(C)(C)[C@@H]5CC[C@]43C)[C@@H]12 (stereo partly specified) .
Outgoing: 5.5
